Assign Kd to each entry below.
Biological target: T1, hPD-1-Fc (human, UniProt Q15116 25-167)
T1 construct: domain: IgV domain; also called human PD-1-Fc; not shown: human IgG1 Fc
T1 sequence (Q15116 25-167 limits assumed): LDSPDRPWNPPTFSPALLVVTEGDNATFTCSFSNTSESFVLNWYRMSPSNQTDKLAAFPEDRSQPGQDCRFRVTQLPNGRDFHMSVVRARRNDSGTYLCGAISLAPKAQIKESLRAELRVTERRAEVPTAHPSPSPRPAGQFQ
Assay: SPR Biacore, hPD1-Fc
Answer with a number only, understood to be in nM.

So, 38B2 (antibody, V domains shown, 24H9 derivative, IgG; also called 780_54; hPD1 Ab (38B2)) VH: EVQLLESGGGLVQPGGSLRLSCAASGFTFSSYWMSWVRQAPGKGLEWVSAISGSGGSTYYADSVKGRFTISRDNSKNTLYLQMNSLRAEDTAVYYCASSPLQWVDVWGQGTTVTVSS VL: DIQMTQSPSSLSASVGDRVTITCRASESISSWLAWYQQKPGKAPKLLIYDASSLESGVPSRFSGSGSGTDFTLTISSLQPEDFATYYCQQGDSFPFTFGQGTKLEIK ? Its Kd was 0.147

So, m2A1 (antibody, V domains shown, R3A9 derivative; also called m2AM (apparent misprint)) VH: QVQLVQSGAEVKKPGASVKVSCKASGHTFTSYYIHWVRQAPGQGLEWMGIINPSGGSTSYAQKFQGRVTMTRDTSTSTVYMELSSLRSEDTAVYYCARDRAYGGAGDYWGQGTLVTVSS VL: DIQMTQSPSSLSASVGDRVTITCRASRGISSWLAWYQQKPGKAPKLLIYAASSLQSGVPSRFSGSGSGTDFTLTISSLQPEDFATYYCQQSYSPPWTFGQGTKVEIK ? Its Kd was 1.67

So, m3A7 (antibody, V domains shown, R3A9 derivative; also called 7115C) VH: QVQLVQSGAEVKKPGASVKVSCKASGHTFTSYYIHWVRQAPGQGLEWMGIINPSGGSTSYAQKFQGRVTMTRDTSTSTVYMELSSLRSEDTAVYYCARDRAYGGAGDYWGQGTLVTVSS VL: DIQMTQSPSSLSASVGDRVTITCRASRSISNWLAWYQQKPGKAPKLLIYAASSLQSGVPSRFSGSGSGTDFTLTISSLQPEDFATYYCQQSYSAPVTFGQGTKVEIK ? Its Kd was 103
